- PROCEDURE DETAILS: in vitro
- MEASUREMENT CONDITIONS: rat, gh3-tre-luc cells, AC50 (uM) modified / 1000
VALUE KIND: CC50 at 24 h

IN: Name the reported CC50 at 24 h value associated with the compound O=C(COP(=O)(O)O)[C@@H](O)[C@H](O)[C@H](O)COP(=O)(O)O [D-Fructose 1,6-bisphosphate trisodium]
OUT: > 50 µM

IN: For NS(=O)(=O)c1ccc(NC(=O)CCC(=O)O)cc1 [Sulfasuccinamide] then?
OUT: > 50 µM

IN: For CCN(CC)Cc1nccn1-c1ccc([N+](=O)[O-])cc1C(=O)c1ccccc1Cl [Nizofenone] then?
OUT: > 50 µM

IN: For CC(=O)Nc1ccc(CC(=O)O)cc1 [4-Acetylaminophenylacetic acid] then?
OUT: > 90 µM

---

Could you please report measured CC50 at 24 h for the items listed next?
- PROCEDURE DETAILS: in vitro
- MEASUREMENT CONDITIONS: rat, gh3-tre-luc cells, AC50 (uM) modified / 1000
Structures can show the parent of a compound that is named as a salt.

IN: Name the reported CC50 at 24 h value associated with the compound CCCCCCCCCCOCC(O)CN (centres unmarked) [Decominol hydrochloride]
OUT: 6.25 µM

IN: For NC(=O)c1cc[n+](CC2=C(C(=O)O)N3C(=O)[C@@H](NC(=O)[C@@H](c4ccccc4)S(=O)(=O)[O-])[C@H]3SC2)cc1 [Cefsulodin sodium] then?
OUT: > 20 µM

IN: For `N[C@@H]1CON=C1O` then?
OUT: > 50 µM

IN: For CCCCOCCOCCOCCO [2-[2-(2-Butoxyethoxy)ethoxy]ethanol] then?
OUT: > 90 µM

IN: For `CCCc1ccc(N)cc1` then?
OUT: > 90 µM

IN: For `CC(C)=CCOc1ccc(/C=C/C(=O)c2ccc(OCC=C(C)C)cc2OCC(=O)O)cc1` then?
OUT: 43 µM

IN: For `CC(C)Oc1cccc(NC(=O)c2ccccc2C(F)(F)F)c1` then?
OUT: > 90 µM

IN: For CC(C)COC(=O)COc1cc(Cl)c(Cl)cc1Cl [Isobutyl (2,4,5-trichlorophenoxy)acetate] then?
OUT: > 90 µM

IN: For O=S(=O)(Cl)c1c(Cl)cccc1Cl [2,6-Dichlorobenzenesulfonylchloride] then?
OUT: > 90 µM

IN: For `Nc1cccc(C(F)(F)F)c1` then?
OUT: > 90 µM

IN: For CC/C=C(\C(=O)N[C@@H]1C(=O)N2C(C(=O)OCOC(=O)C(C)(C)C)=C(COC(N)=O)CS[C@H]12)c1csc(N)n1 [Cefcapene pivoxil hydrochloride] then?
OUT: > 50 µM

IN: For CCCCCCCCC(=O)OCC [Ethyl nonanoate] then?
OUT: > 90 µM

IN: For `N[C@@H](C(=O)N[C@@H]1C(=O)N2C(C(=O)O)=C(Cl)CS[C@H]12)c1ccccc1` then?
OUT: > 50 µM

IN: For `CC1=C(C(=O)O)N2C(=O)[C@@H](NC(=O)[C@H](N)c3ccc(O)cc3)[C@H]2SC1` then?
OUT: > 20 µM

IN: For CC12CCC(C1)C(C)(C)C2=O (centres unmarked) then?
OUT: > 50 µM

IN: For `CC(C)(C#N)N=NC(C)(C)C#N` then?
OUT: > 90 µM

IN: For CCN(CC)CCNC(=O)c1ccc(NS(C)(=O)=O)cc1 [Sematilide monohydrochloride] then?
OUT: > 50 µM

IN: For CC1=C(/C=C/C(C)=C/C=C/C(C)=C\C=O)C(C)(C)CCC1 [13-cis-Retinal] then?
OUT: 45.2 µM

IN: For `O=C1C2CC3CC1CC(O)(C3)C2` then?
OUT: > 50 µM

IN: For `CCCCCCCCCOC(=O)c1ccc(O)cc1` then?
OUT: 21.8 µM

IN: For COC(=O)C[C@](O)(CCCC(C)(C)O)C(=O)O[C@@H]1C(OC)=C[C@]23CCCN2CCc2cc4c(cc2[C@H]13)OCO4 [Omacetaxine mepesuccinate] then?
OUT: 0.0816 µM

IN: For CCCCCCCCCCCC(=O)NCCCN(C)C [N-[3-(Dimethylamino)propyl]dodecanamide] then?
OUT: 18 µM

IN: For `CNc1ccc([N+](=O)[O-])cc1` then?
OUT: 54.8 µM
